# target-of-assay: myeloperoxidase (MPO) (Homo sapiens (Human), UniProt P05164)
# Sequence (P05164 49-745): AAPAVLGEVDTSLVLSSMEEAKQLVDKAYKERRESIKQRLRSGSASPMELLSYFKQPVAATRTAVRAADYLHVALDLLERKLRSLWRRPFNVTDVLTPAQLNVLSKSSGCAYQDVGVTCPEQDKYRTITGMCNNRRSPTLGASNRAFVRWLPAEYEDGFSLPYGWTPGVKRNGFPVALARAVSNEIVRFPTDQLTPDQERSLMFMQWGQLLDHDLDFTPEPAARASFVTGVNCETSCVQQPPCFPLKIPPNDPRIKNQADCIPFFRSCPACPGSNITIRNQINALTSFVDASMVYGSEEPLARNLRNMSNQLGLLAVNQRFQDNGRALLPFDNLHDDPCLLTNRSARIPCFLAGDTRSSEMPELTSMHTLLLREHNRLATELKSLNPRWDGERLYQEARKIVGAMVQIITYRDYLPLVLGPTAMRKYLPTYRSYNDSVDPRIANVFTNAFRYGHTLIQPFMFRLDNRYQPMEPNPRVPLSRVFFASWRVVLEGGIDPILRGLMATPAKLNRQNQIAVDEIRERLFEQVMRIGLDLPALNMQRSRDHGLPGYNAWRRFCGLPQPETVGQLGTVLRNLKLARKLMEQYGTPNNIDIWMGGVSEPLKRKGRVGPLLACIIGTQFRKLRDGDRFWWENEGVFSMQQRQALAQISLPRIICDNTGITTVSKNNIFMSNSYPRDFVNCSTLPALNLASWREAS
# protocol-details: MPO chlorination assay (APF assay)
# Type: biochemical
# condition-info: potency range class
Listed here: items and their measured IC50.

Here's what some known entries look like.
compound: Nc1cc(Cc2cnn(Cc3cccc(N4CCNC(c5cccc(Cl)c5)C4)c3)c2)c2nn[nH]c2n1 (stereo not shown)
IC50: 1 to 100 nM
--
compound: Nc1cc(Cc2cnn(C(CCCO)c3ccccc3)c2)c2nn[nH]c2n1 (stereo not shown)
IC50: 101 to 999 nM

Kindly indicate its recorded IC50. Item: Nc1cc(Cc2cnn(Cc3ccc(C(=O)N4CCC(O)C4)cc3)c2)c2nn[nH]c2n1 (stereo not shown)
101 to 999 nM

# return recorded IC50 for input Nc1cc(Cc2cnn(-c3ccccc3F)c2)c2nn[nH]c2n1
1 to 100 nM

Given Nc1cc(Cc2cnn(Cc3ccccc3C3CCNCC3)c2)c2nn[nH]c2n1 , respond with its IC50.
101 to 999 nM

# return recorded IC50 for entry Nc1cc(Cc2cnn(Cc3ccc(C(=O)NCc4cn[nH]c4)cc3)c2)c2nn[nH]c2n1
101 to 999 nM

For the compound Nc1cc(Cc2cnn(Cc3cccc(N4C[C@@H]5C[C@H]4CN5)c3)c2)c2nn[nH]c2n1 , give its reported IC50.
1 to 100 nM

Give a short answer stating reported IC50 for Cc1nnc(C(C)NC(=O)c2ccc(Cn3cc(Cc4cc(N)nc5[nH]nnc45)cn3)cc2)[nH]1 (stereo not shown) .
101 to 999 nM

Note down IC50 recorded for CC(C)C1C[C@@H](c2cccc(Cn3cc(Cc4cc(N)nc5[nH]nnc45)cn3)c2)CN1 (stereo partly shown)
1 to 100 nM

Please look at this compound and report its IC50: Nc1cc(Cc2cnn(Cc3ccc(C(=O)NCCc4cnc[nH]4)cc3)c2)c2nn[nH]c2n1
101 to 999 nM

Look up IC50 of Nc1cc(Cc2cnn(Cc3cccc(OC[C@@H]4CCNC4)c3)c2)c2nn[nH]c2n1 and report it.
1 to 100 nM

State, in one line, measured IC50 of Cc1ccccc1Cn1cc(Cc2cc(N)nc3[nH]nnc23)cn1
101 to 999 nM

###

# target-of-assay: myeloperoxidase (MPO) (Homo sapiens (Human), UniProt P05164)
# protocol-details: MPO peroxidation assay (Amplex Red assay)
# Format: biochemical
# condition-info: potency range class
pIC50: −log10 of the molar value.
measured-quantity: pIC50

Below, each entry is followed by its recorded pIC50 result.
smi: Nc1cc(Cc2cnn(-c3cccc(Cc4ccccc4)c3)c2)c2nn[nH]c2n1
pIC50: 7.00 to 9.00
//
smi: C[C@@H]1CN(c2cc(Cn3cc(Cc4cc(N)nc5[nH]nnc45)cn3)ccc2F)C[C@H](C)N1
pIC50: 7.00 to 9.00
//
smi: Nc1cc(Cc2cnn(Cc3ccc4ncccc4c3)c2)c2nn[nH]c2n1
pIC50: 7.00 to 9.00
//
smi: Cc1ccc([C@H]2CNC(=O)C2)cc1Cn1cc(Cc2cc(N)nc3[nH]nnc23)cn1
pIC50: 6.00 to 7.00
//
smi: Nc1cc(Cc2cnn(Cc3ccc4c(c3)CC[C@H]4N)c2)c2nn[nH]c2n1
pIC50: 7.00 to 9.00

Please report the measured pIC50 for Nc1cc(Cc2cnn(-c3ccc4ccccc4c3)c2)c2nn[nH]c2n1
6.00 to 7.00

Give me measured pIC50, please, for this compound: Nc1cc(Cn2nnc3ccc(Cl)cc32)c2nn[nH]c2n1
6.00 to 7.00

Identify the reported pIC50 for the following entry. Nc1cc(Cc2cnn(-c3cccc(C4CC4)c3)c2)c2nn[nH]c2n1
7.00 to 9.00

Tell us which pIC50 value is on record for COc1ccc(-n2cc(Cc3cc(N)nc4[nH]nnc34)cn2)cc1
6.00 to 7.00

###

Property: pIC50; scope: individual molecules
# target-of-assay: myeloperoxidase (MPO) (Homo sapiens (Human), UniProt P05164)
# protocol-details: MPO chlorination assay (APF assay)
# Format: biochemical
# condition-info: potency range class
pIC50: −log10 of the molar value.

Example entries and their recorded answers appear below.
molecule: Nc1cc(Cc2cnn(Cc3cccc([C@@H]4CNCCO4)c3)c2)c2nn[nH]c2n1
target-of-assay: myeloperoxidase (MPO) (Homo sapiens (Human), UniProt P05164)
result: 7.00 to 9.00

molecule: CC1CNCCC1c1cccc(Cn2cc(Cc3cc(N)nc4[nH]nnc34)cn2)c1 (centres unmarked)
target-of-assay: myeloperoxidase (MPO) (Homo sapiens (Human), UniProt P05164)
result: 7.00 to 9.00

molecule: Nc1cc(Cc2cnn(Cc3ccc4cnccc4c3)c2)c2nn[nH]c2n1
target-of-assay: myeloperoxidase (MPO) (Homo sapiens (Human), UniProt P05164)
result: 6.00 to 7.00

molecule: NCc1ccc(Cn2cc(Cc3cc(N)nc4[nH]nnc34)cn2)cc1
target-of-assay: myeloperoxidase (MPO) (Homo sapiens (Human), UniProt P05164)
result: 7.00 to 9.00

Now look at this entry.
For the molecule Nc1cc(Cn2nnc3cccc(Cl)c32)c2nn[nH]c2n1 , report pIC50.
6.00 to 7.00

###

Measured IC50 by item
# target-of-assay: myeloperoxidase (MPO) (Homo sapiens (Human), UniProt P05164)
# protocol-details: MPO peroxidation assay (Amplex Red assay)
# Assay type: biochemical
# condition-info: potency range class

molecule: Nc1cc(Cc2cnn(Cc3cccc(CN4CCNCC4)c3)c2)c2nn[nH]c2n1
IC50: 1 to 100 nM
//
molecule: Nc1cc(Cc2cnn(Cc3cccc(C4CNC4)c3)c2)c2nn[nH]c2n1
IC50: 1 to 100 nM

Output IC50 of Nc1cc(Cn2nnc3cc(Cc4ccccc4)ccc32)c2nn[nH]c2n1
101 to 999 nM

Look up IC50 of Nc1cc(Cc2cnn(Cc3cccc(C4CCNC4)c3)c2)c2nn[nH]c2n1 (centres unmarked) [Example 187] and report it.
1 to 100 nM

Give reported IC50 value for CN(C)CC(=O)NCc1ccc(Cn2cc(Cc3cc(N)nc4[nH]nnc34)cn2)cc1
1 to 100 nM

###

# target-of-assay: myeloperoxidase (MPO) (Homo sapiens (Human), UniProt P05164)
# protocol-details: MPO peroxidation assay (Amplex Red assay)
# Format: biochemical
# condition-info: potency range class
Reported IC50 values are given for each entry in this list.

Illustrative cases are given below, each with its answer.
compound: Nc1cc(Cc2cnn(CCc3ccccc3)c2)c2nn[nH]c2n1
IC50: 1 to 100 nM
//
compound: Nc1cc(Cc2cnn(Cc3ccc4c(c3)CCC[C@@H]4N)c2)c2nn[nH]c2n1
IC50: 1 to 100 nM
//
compound: CCCNC(=O)c1ccc(Cn2cc(Cc3cc(N)nc4[nH]nnc34)cn2)cc1
IC50: 1 to 100 nM
//
compound: CN(Cc1ncc[nH]1)C(=O)c1ccc(Cn2cc(Cc3cc(N)nc4[nH]nnc34)cn2)cc1
IC50: 1 to 100 nM
//
compound: Nc1cc(Cn2ncc(-c3ccccc3)n2)c2nn[nH]c2n1
IC50: 101 to 999 nM
//
compound: Nc1cc(Cn2nnc3cc(Cl)ccc32)c2nn[nH]c2n1
IC50: 1 to 100 nM

Give IC50 for this entry on myeloperoxidase (MPO) (Homo sapiens (Human), UniProt P05164): Nc1cc(Cc2cnn(C3CCCC3)c2)c2nn[nH]c2n1
1 to 100 nM

Specify IC50 for Nc1cc(Cc2cnn(Cc3cccc(N4CCNC(c5cccc(Cl)c5)C4)c3)c2)c2nn[nH]c2n1 (stereo not drawn) , system myeloperoxidase (MPO) (Homo sapiens (Human), UniProt P05164).
101 to 999 nM

Provide IC50, tested on myeloperoxidase (MPO) (Homo sapiens (Human), UniProt P05164), for C[C@@H]1CN(c2cccc(Cn3cc(Cc4cc(N)nc5[nH]nnc45)cn3)c2)C[C@H](C)O1 .
101 to 999 nM

###

We begin with a simple list: items and their reported IC50.
# target-of-assay: myeloperoxidase (MPO) (Homo sapiens (Human))
# protocol-details: MPO peroxidation assay (Amplex Red assay)
# Type: biochemical
# condition-info: potency range class

smi: CN1CC[C@@H](Oc2cccc(Cn3cc(Cc4cc(N)nc5[nH]nnc45)cn3)c2)C1
target-of-assay: myeloperoxidase (MPO) (Homo sapiens (Human))
measured-quantity: IC50
result: 0.001 to 0.1 µM

smi: Nc1cc(Cc2cnn(Cc3cccc(O[C@H]4CN[C@H](CO)C4)c3)c2)c2nn[nH]c2n1
target-of-assay: myeloperoxidase (MPO) (Homo sapiens (Human))
measured-quantity: IC50
result: 0.001 to 0.1 µM

smi: COc1ccccc1-n1cc(Cc2cc(N)nc3[nH]nnc23)cn1
target-of-assay: myeloperoxidase (MPO) (Homo sapiens (Human))
measured-quantity: IC50
result: 0.101 to 0.999 µM

smi: Nc1cc(Cc2cnn(Cc3ccccc3)c2)c2nn[nH]c2n1
target-of-assay: myeloperoxidase (MPO) (Homo sapiens (Human))
measured-quantity: IC50
result: 0.001 to 0.1 µM

Provide only the value of recorded IC50 for Nc1cc(Cc2cnn(Cc3ccc(CN4CCOCC4)cc3)c2)c2nn[nH]c2n1
0.001 to 0.1 µM

These measurements were taken from patent US10407422B2.
